Readings of Emax for the listed compounds
- TARGET_OR_TEST_SYSTEM: human GLP-1R receptor (Homo sapiens, UniProt P43220)
- Construct: expressed in transfected cells
- Sequence (P43220 24-463): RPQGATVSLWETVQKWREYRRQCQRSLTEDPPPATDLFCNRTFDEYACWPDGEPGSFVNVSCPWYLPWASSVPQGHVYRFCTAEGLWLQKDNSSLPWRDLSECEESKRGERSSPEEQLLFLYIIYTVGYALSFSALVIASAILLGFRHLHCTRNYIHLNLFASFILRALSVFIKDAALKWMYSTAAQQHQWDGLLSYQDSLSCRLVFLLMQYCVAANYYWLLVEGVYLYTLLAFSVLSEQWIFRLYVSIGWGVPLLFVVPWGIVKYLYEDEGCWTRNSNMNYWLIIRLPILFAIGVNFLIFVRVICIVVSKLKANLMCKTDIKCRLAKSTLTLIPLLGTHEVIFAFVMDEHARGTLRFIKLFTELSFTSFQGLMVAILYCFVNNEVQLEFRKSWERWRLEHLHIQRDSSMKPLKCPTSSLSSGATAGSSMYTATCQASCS
- PROTOCOL_SUMMARY: GLP-1R low expression cell assay (cAMP TR-FRET, CHO-K1_hGLP-1Rlow_clone10 cells)
- Type: cell-based
- CONDITION_CONTEXT: maximum activation relative to control GLP-1 peptide agonist

- COMPOUND_STRING: "CC(=O)Oc1cc(C(=O)O)cc2c1nc(CN1CCC(c3cccc(OCc4ccc(C#N)cc4F)n3)CC1)n2C"
  TARGET_OR_TEST_SYSTEM: "human GLP-1R receptor (Homo sapiens, UniProt P43220)"
  RESULT: "> 85%"
- COMPOUND_STRING: "Cn1c(CN2CCC(c3cccc(CCc4ccc(Cl)cc4)n3)CC2)nc2c(OC(F)F)cc(C(=O)O)cc21"
  TARGET_OR_TEST_SYSTEM: "human GLP-1R receptor (Homo sapiens, UniProt P43220)"
  RESULT: "25 to 50%"
- COMPOUND_STRING: "Cn1c(CN2CCC(c3cccc(OCc4ccc(Cl)cc4F)n3)CC2)nc2c(OC(F)(F)CF)cc(C(=O)O)cc21"
  TARGET_OR_TEST_SYSTEM: "human GLP-1R receptor (Homo sapiens, UniProt P43220)"
  RESULT: "> 85%"
- COMPOUND_STRING: "Cn1c(CN2CCC(c3cccc4c3O[C@@](C)(c3ccc(Cl)cn3)O4)CC2)nc2c(C(C)(F)F)cc(C(=O)O)cc21"
  TARGET_OR_TEST_SYSTEM: "human GLP-1R receptor (Homo sapiens, UniProt P43220)"
  RESULT: "> 85%"
- COMPOUND_STRING: "Cn1c(CN2CCC(c3cccc(OCc4ccc(Cl)cc4F)n3)CC2)nc2c(OC(F)F)cc(-c3n[nH]c(=O)o3)cc21"
  TARGET_OR_TEST_SYSTEM: "human GLP-1R receptor (Homo sapiens, UniProt P43220)"
  RESULT: "< 25%"

Which measured Emax belongs to CO/N=C/c1ccc(COc2cccc(C3CCN(Cc4nc5c(OC)cc(C(=O)O)cc5n4C[C@@H]4CCO4)CC3)n2)c(F)c1 , tested on human GLP-1R receptor (Homo sapiens, UniProt P43220)?
> 85%

What reported Emax corresponds to COc1cc(F)ccc1COc1cccc(C2CCN(Cc3nc4c(OC(F)F)cc(C(=O)O)cc4n3C)CC2)n1 on human GLP-1R receptor (Homo sapiens, UniProt P43220)?
> 85%

human GLP-1R receptor (Homo sapiens, UniProt P43220) / Emax / COc1cc(C(=O)O)cc2c1nc([C@@H](C)N1CCC(c3cccc4c3O[C@@](C)(c3ccc(Cl)cn3)O4)CC1)n2C : value?
> 85%

Reported Emax for human GLP-1R receptor (Homo sapiens, UniProt P43220), given Cn1c(CN2CCC(c3cccc(OCc4ccc(Cl)cc4F)n3)CC2)nc2c(OC(F)F)c(C(=O)O)ccc21 ?
> 85%

Write down the reported Emax of Cn1c(CN2CCC(c3cccc(OCc4ccccc4Cl)n3)CC2)nc2c(OC(F)F)cc(C(=O)O)cc21 , test system: human GLP-1R receptor (Homo sapiens, UniProt P43220).
> 85%

Query Emax on human GLP-1R receptor (Homo sapiens, UniProt P43220) for COc1cc(C(=O)O)cc2c1nc(CN1CCC(c3cccc4c3O[C@H](c3ccc(C#N)cc3F)CO4)CC1)n2Cc1cncs1
> 85%

Provide value of Emax for this record tested with human GLP-1R receptor (Homo sapiens, UniProt P43220): [2H]C([2H])(C)Oc1cc(C(=O)O)cc2c1nc(CN1CCC(c3cccc(OCc4ccc(Cl)cc4F)c3)CC1)n2C
> 85%

Query for human GLP-1R receptor (Homo sapiens, UniProt P43220): what Emax does the record show for Cn1c(CN2CCC(c3cccc(OCc4ccc(Cl)cc4F)n3)CC2)nc2c(OC[C@@H]3CCO3)cc(C(=O)O)cc21 ?
> 85%

Hello, I am looking for reported Emax with human GLP-1R receptor (Homo sapiens, UniProt P43220) for CCOc1cc(C(=O)O)cc2c1nc(Cc1ccc(-c3cccc(OCc4ccc(C#N)cc4F)n3)cc1F)n2C . Could you help?
> 85%

Field: Emax (human GLP-1R receptor (Homo sapiens, UniProt P43220)). Entry: O=C(O)c1cc(OCF)c2c(c1)nc(CN1CCC(c3cccc(OCc4ccc(Cl)cc4F)n3)CC1)n2CF
25 to 50%

Item N#Cc1ccc(COc2cccc(C3CCN(Cc4nc5c(O)cc(C(=O)O)cc5n4Cc4cncs4)CC3)n2)c(F)c1 with human GLP-1R receptor (Homo sapiens, UniProt P43220) - Emax?
> 85%

Reference for the values: patent US20240368120A1
